These data points were gathered from the supplement of paper PMC7877785.

- EXPERIMENT DESCRIPTION: self-splicing fitness, log relative to wild type (ln ratio); higher = more splicing; Tetrahymena group I intron in knt gene, E. coli kanamycin selection, DiMSum; sequences stand for … in CUCUCU…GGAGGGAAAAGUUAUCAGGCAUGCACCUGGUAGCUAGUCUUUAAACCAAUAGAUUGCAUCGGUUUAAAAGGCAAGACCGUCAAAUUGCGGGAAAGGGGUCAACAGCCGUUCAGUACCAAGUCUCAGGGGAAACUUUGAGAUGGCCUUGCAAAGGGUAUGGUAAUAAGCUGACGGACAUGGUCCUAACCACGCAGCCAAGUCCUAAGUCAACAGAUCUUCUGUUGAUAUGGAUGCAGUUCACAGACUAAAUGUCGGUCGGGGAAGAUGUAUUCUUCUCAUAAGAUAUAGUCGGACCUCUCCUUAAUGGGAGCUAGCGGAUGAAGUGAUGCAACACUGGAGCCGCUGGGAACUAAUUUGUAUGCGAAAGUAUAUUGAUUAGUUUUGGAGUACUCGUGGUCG;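 also: selection with 25 µg/mL kanamycin versus none on LB agar overnight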
- ASSAY CONTEXT: 37 °C
Attribute: self-splicing fitness (ln)

Some sequences with recorded self-splicing fitness (ln):
INSERT INTO assay_data (monomer_sequence, assay_endpoint, data_value) VALUES
  ('CUGGAGCAAUAUUACGGGCG', 'self-splicing fitness (ln)', -0.434),
  ('GCCGAGCAAUAUUACGAGCC', 'self-splicing fitness (ln)', -2.3),
  ('UUAGAGCAAUAUUACGGAAC', 'self-splicing fitness (ln)', -2.33),
  ('AAAGAGCAAUAUUACGUGAA', 'self-splicing fitness (ln)', -2.44),
  ('AUUUAGCAAUAUUACGAUCG', 'self-splicing fitness (ln)', -0.669);

Indicate its recorded self-splicing fitness (ln); the sequence in question is AGACAGCAAUAUUACGCUAG
-2.81

Give self-splicing fitness (ln) for AGGUAGCAAUAUUACGCCUC
-3.34

Look up and report measured self-splicing fitness (ln) for this entry: AUGUAGCAAUAUUACGGCGU
-0.716

Give me measured self-splicing fitness (ln), please, for this sequence: AUGCAGCAAUAUUACGACGU
0.706

Name the recorded self-splicing fitness (ln) of the sequence listed here: GGUGAGCAAUAUUACGUGUG
-2.47

Provide one value: measured self-splicing fitness (ln) of AAGUAGCAAUAUUACGAUGC
-0.209

Identify the reported self-splicing fitness (ln) for the following entry. UAUAAGCAAUAUUACGUGCG
-0.00615

Recall and state the measured self-splicing fitness (ln) for CAGCAGCAAUAUUACGCCUA .
0.522

Supply measured self-splicing fitness (ln) of AGUUAGCAAUAUUACGCCGU in your reply.
-0.939

Read the entry UACUAGCAAUAUUACGACUG and write its reported self-splicing fitness (ln).
0.113

// Input: ACAUAGCAAUAUUACGAUGC . Output its self-splicing fitness (ln) only.
-0.811

Give self-splicing fitness (ln) for AGUGAGCAAUAUUACGAUGU
-2.51

Name the recorded self-splicing fitness (ln) of the item ACGGAGCAAUAUUACGCAAC in your answer.
-2.4

Tell us which self-splicing fitness (ln) value is on record for AAAGAGCAAUAUUACGGGGU
-2.18

Quote self-splicing fitness (ln) reported for GACAAGCAAUAUUACGCUUC please.
-2.25

Fill in reported self-splicing fitness (ln) for this entry: GUGCAGCAAUAUUACGCUAA
0.418

Look up and state reported self-splicing fitness (ln) for GCCAAGCAAUAUUACGGUAU
0.416

Provide one value: measured self-splicing fitness (ln) of CCUUAGCAAUAUUACGAAUA
-2.21
